assay: self-splicing fitness, log relative to wild type (ln ratio); higher = more splicing; Tetrahymena group I intron in knt gene, E. coli kanamycin selection, DiMSum; sequences stand for … in CUCUCU…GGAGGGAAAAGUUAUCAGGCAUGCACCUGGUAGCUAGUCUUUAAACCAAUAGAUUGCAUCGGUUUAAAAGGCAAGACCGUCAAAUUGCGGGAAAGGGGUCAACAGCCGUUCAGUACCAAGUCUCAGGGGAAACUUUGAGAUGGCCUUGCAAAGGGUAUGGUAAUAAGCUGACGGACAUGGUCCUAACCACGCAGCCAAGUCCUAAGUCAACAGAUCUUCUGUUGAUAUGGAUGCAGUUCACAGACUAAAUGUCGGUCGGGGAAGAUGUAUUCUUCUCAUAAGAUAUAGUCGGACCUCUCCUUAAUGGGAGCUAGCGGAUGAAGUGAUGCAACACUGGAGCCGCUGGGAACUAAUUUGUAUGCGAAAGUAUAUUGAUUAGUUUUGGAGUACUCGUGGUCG; conditions: 37 °C;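 also: selection with 25 µg/mL kanamycin versus none on LB agar overnight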
Field: class. Source value: self-splicing fitness (ln). Ranges: low class: < -2; middle class: ≥ -2 and < -1; high class: ≥ -1

Returns: class label. Input: GUAGAGCAAUAUUACGUAGU
high class

Next:
Returns: class label. Input: CCUAAGCAAUAUUACGAUUG
middle class

Returns: class label. Input: CAAAAGCAAUAUUACGCUUG
low class

Returns: class label. Input: ACUUAGCAAUAUUACGGUUA
high class

Returns: class label. Input: CAGUAGCAAUAUUACGAUCU
middle class

Returns: class label. Input: CCCUAGCAAUAUUACGCACG
middle class
